pIC50: −log10 of the molar value.
Collected set of pIC50 measured with Amine oxidase [flavin-containing] B (Bos taurus, UniProt P56560) across studies.
Sequence (P56560 whole entry): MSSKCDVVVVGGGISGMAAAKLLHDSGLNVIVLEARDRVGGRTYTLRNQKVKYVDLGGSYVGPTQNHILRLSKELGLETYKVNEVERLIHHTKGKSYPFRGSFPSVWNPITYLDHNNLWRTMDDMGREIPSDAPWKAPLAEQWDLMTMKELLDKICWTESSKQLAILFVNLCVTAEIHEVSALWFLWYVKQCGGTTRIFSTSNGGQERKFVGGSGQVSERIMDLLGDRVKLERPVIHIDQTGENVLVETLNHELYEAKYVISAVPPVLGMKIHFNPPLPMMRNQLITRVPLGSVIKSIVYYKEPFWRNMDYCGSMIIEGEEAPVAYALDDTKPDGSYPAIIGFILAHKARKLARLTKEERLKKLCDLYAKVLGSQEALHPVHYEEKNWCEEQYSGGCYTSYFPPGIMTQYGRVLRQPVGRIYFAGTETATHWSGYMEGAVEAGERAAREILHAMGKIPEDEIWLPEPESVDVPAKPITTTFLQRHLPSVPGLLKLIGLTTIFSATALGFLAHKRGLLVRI
Measured pIC50 determines class: Low (below 3), Medium (3 to below 4), High (4 or more)

- COMPOUND: "CC(=O)N1N=C(c2ccc(O)cc2)CC1c1cccc(Cl)c1 (centres undefined)"
  TEST_TARGET: "Amine oxidase [flavin-containing] B (Bos taurus, UniProt P56560)"
  ASSIGNED_CATEGORY: "High"
- COMPOUND: "COc1ccc(/C=N/Nc2nc3ccccc3nc2Cc2ccccc2)cc1OC"
  TEST_TARGET: "Amine oxidase [flavin-containing] B (Bos taurus, UniProt P56560)"
  ASSIGNED_CATEGORY: "Medium"
- COMPOUND: "C/C(=N\\Nc1nc2ccccc2nc1Cc1ccccc1)c1ccc(O)cc1"
  TEST_TARGET: "Amine oxidase [flavin-containing] B (Bos taurus, UniProt P56560)"
  ASSIGNED_CATEGORY: "Low"
- COMPOUND: "CC(=O)N1C(=O)C(=O)c2ccccc21"
  TEST_TARGET: "Amine oxidase [flavin-containing] B (Bos taurus, UniProt P56560)"
  ASSIGNED_CATEGORY: "Medium"
- COMPOUND: "COC(=O)C[C@H](NC(=O)C(=O)c1ccccc1NC(C)=O)C(=O)OC"
  TEST_TARGET: "Amine oxidase [flavin-containing] B (Bos taurus, UniProt P56560)"
  ASSIGNED_CATEGORY: "Medium"
- COMPOUND: "COc1ccc(C2CC(c3ccc(O)cc3)=NN2C(C)=O)c(OC)c1 (centres undefined)"
  TEST_TARGET: "Amine oxidase [flavin-containing] B (Bos taurus, UniProt P56560)"
  ASSIGNED_CATEGORY: "High"
- COMPOUND: "Oc1ccc(/C=N/Nc2nc3ccccc3nc2Cc2ccccc2)cc1"
  TEST_TARGET: "Amine oxidase [flavin-containing] B (Bos taurus, UniProt P56560)"
  ASSIGNED_CATEGORY: "Low"
- COMPOUND: "O=C(c1ccccc1)c1nc2ccccc2n2c(-c3ccc([N+](=O)[O-])cc3)nnc12"
  TEST_TARGET: "Amine oxidase [flavin-containing] B (Bos taurus, UniProt P56560)"
  ASSIGNED_CATEGORY: "Medium"
- COMPOUND: "CN(C)c1ccc(-c2nnc3c(C(=O)c4ccccc4)nc4ccccc4n23)cc1Br"
  TEST_TARGET: "Amine oxidase [flavin-containing] B (Bos taurus, UniProt P56560)"
  ASSIGNED_CATEGORY: "High"
- COMPOUND: "COc1ccccc1/C=N/Nc1nc2ccccc2nc1Cc1ccccc1"
  TEST_TARGET: "Amine oxidase [flavin-containing] B (Bos taurus, UniProt P56560)"
  ASSIGNED_CATEGORY: "Medium"
- COMPOUND: "CCOC(=O)C(C(=O)N/N=C/c1ccc([N+](=O)[O-])cc1)[n+]1ccc2ccccc2c1 (centres undefined)"
  TEST_TARGET: "Amine oxidase [flavin-containing] B (Bos taurus, UniProt P56560)"
  ASSIGNED_CATEGORY: "Low"
- COMPOUND: "COC(=O)CCCNC(=O)c1ccc(NC(=O)C(=O)c2ccccc2NC(C)=O)cc1"
  TEST_TARGET: "Amine oxidase [flavin-containing] B (Bos taurus, UniProt P56560)"
  ASSIGNED_CATEGORY: "Medium"
- COMPOUND: "COc1ccc(/C(C)=N/Nc2nc3ccccc3nc2Cc2ccccc2)cc1"
  TEST_TARGET: "Amine oxidase [flavin-containing] B (Bos taurus, UniProt P56560)"
  ASSIGNED_CATEGORY: "Medium"
- COMPOUND: "C/C(=N\\Nc1nc2ccccc2nc1Cc1ccccc1)c1ccc(C)cc1"
  TEST_TARGET: "Amine oxidase [flavin-containing] B (Bos taurus, UniProt P56560)"
  ASSIGNED_CATEGORY: "Medium"
- COMPOUND: "COc1ccc(C2CC(c3ccc(O)cc3)=NN2C(C)=O)cc1 (centres undefined)"
  TEST_TARGET: "Amine oxidase [flavin-containing] B (Bos taurus, UniProt P56560)"
  ASSIGNED_CATEGORY: "High"
- COMPOUND: "C(=N\\Nc1nc2ccccc2nc1Cc1ccccc1)/c1ccccc1"
  TEST_TARGET: "Amine oxidase [flavin-containing] B (Bos taurus, UniProt P56560)"
  ASSIGNED_CATEGORY: "Medium"
